assayExplanation: basal 3T3-L1 adipocyte mitochondrial potential changes, profiling panel, cell-based, JC-1 fluorescence, 3T3-L1 adipocytes, 24 h, 100 nL compound (AID 1168); further: test concentration not given here
setupConditions: JC-1 mitochondrial fluorescence, higher = more signal, called active from +8 up or from −8 down
Tick Condition met if z-score is 0.6 or greater. Tick Condition not met if z-score is less than 0.6.

compound	label
CN(C)CCCCCCNC(=O)[C@@H]1C[C@@H]2C(=O)N[C@@H](CCCCN)C(=O)N2[C@@H]1c1ccc(O)cc1	Condition not met
O=c1cccc(-c2ccc(F)cc2)o1	Condition not met
COCCOC(=O)N1C(=O)[C@@]2(c3ccccc31)[C@H](c1ccc(OCCO)cc1)N1[C@H](c3ccccc3)[C@H](c3ccccc3)OC(=O)[C@H]1[C@@H]2C(=O)N1CCCCCCC1	Condition not met
COc1ccc(C#Cc2ccc3c(c2)[C@]2(C(=O)N3)[C@H](C(=O)N3CCCCCCC3)[C@H]3C(=O)O[C@H](c4ccccc4)[C@H](c4ccccc4)N3[C@@H]2c2ccc(O)cc2)cc1	Condition met
CCCC=C(CCC)[C@@H](NS(=O)(=O)c1cccc2cccnc12)c1ccc(-c2ccccc2)cc1	Condition not met
COc1ccc(C(O)C2C=CC3C(=O)N(c4ccccc4)C(=O)C3N2Nc2ccccc2)cc1 (stereo unspecified)	Condition not met
COCCOC(=O)N1C(=O)[C@@]2(c3cc(C#CCC(C(=O)OC)C(=O)OC)ccc31)[C@H](C(=O)NC[C@H](O)c1ccccc1)[C@H]1C(=O)O[C@H](c3ccccc3)[C@H](c3ccccc3)N1[C@@H]2c1ccc(O)cc1	Condition not met
CN1C(=O)[C@@]2(Cc3ccccc3)N=C(c3ccc(OCCCO)cc3)O[C@H]2c2ccccc21	Condition met
CN(C)C(=O)[C@]1(CCS(=O)(=O)c2ccccc2)N=C(c2ccc(OCCCO)cc2)O[C@@H]1c1ccccc1	Condition not met
Nc1cc(Br)ccc1C(=O)O	Condition not met
COCCOC(=O)N1C(=O)[C@@]2(c3cc(C#Cc4ccc(OC)cc4)ccc31)[C@H](C(=O)NC[C@H](O)c1ccccc1)[C@H]1C(=O)O[C@H](c3ccccc3)[C@H](c3ccccc3)N1[C@@H]2c1ccc(OCCO)cc1	Condition met
